Record form. Attribute: growth. Fill in for each entry.
Test system: HCT-15 colon
Assay: NCI-60 one-dose screen, 48 h (100 = growth as untreated, 0 = no growth, -100 = all killed)
Conditions: 10 µM unless noted
About 83,000 compounds went through this panel and 20% of them were active in at least one assay; those are over-represented in the sample as a whole.
Numbers only, in %.

Examples with answers:
{"compound": "N#C[Se]Cc1cc(-c2ccccc2)n(-c2ccc(S(N)(=O)=O)cc2)n1", "unit.of.measure": "%", "growth": 4.73}
{"compound": "CC(=O)O[C@H](C[C@H](C(C)C)N(C)C(=O)[C@@H](NC(=O)[C@H]1CCCCN1C)C(C)C)c1nc(C(=O)N[C@@H](Cc2ccccc2)C[C@H](C)C(=O)O)c(C(C)C)s1", "unit.of.measure": "%", "growth": 8.7}
{"compound": "COc1cccc2c1c(C(=O)c1ccco1)cn2Cc1ccc(F)cc1", "unit.of.measure": "%", "growth": 103}
{"compound": "C[C@]12CC[C@@H]3c4ccc(Oc5nc(N6CC6)nc(N6CC6)n5)cc4CC[C@H]3[C@@H]1CCC2=O", "unit.of.measure": "%", "growth": 37.4}
{"compound": "Clc1ccc(CO/N=C(\\Cn2ccnc2)c2ccc(Cl)cc2Cl)c(Cl)c1", "unit.of.measure": "%", "growth": 6.36}

Could I get growth for every one of these entries?
1. COC(=O)[C@@H](C)C[C@H](Cc1ccccc1)NC(=O)c1nc([C@@H](C[C@H](C(C)C)N(C)C(=O)[C@@H](NC(=O)[C@H]2CC(=O)CCN2C)C(C)C)OC(C)=O)sc1C(C)C
2. CCOC(=O)CCC(NC(=O)C(Cc1ccc(N(CCCl)CCCl)cc1)NC=O)C(=O)OCC (configuration not stated)
3. CO[C@H](C(=O)O)[C@@H]1Cc2cc3cc(OC4CC(OC5CC(O)C(O)C(C)O5)C(O)C(C)O4)c(C)c(O)c3c(O)c2C(=O)[C@H]1OC1CC(OC2CC(OC3CC(C)(O)C(O)C(C)O3)C(O)C(C)O2)C(O)C(C)O1 (some centres not stated)
4. CC1(C)[C@H](O)[C@H](F)C[C@@]2(C)Oc3ccc(C(=O)Nc4ccc5c(c4)NC(=O)C54CCN(CCCCC#N)CC4)cc3C[C@H]12
5. COc1cc(C=Nc2cc(Cl)cc(Cl)c2)ccc1N(CCCl)CCCl

Ans.
1. 8.84
2. 36.3
3. 38.7
4. 45.7
5. 96.2

Could I get growth for every one of these entries?
1. O=C(N/N=C\c1ccc(N(CCCl)CCCl)cc1Cl)c1cccnc1
2. COc1cc2c(c(OC)c1OC)-c1ccc([O-])c(=O)cc1[C@@H](NC(C)=O)CC2.COc1cc2c(c(OC)c1OC)-c1ccc([O-])c(=O)cc1[C@@H](NC(C)=O)CC2.[Cu+2]
3. COc1ccc(-n2c(C)nc3cc(OC)c(OC)cc3c2=O)cc1OC
4. CN1C(=O)C(=Cc2cn(Cc3ccccc3)c3ccccc23)C(=O)N(C)C1=O

Ans.
79.9
15.8
111
93

Could I get growth for every one of these entries?
1. COc1cc([N+](=O)[O-])c2nc(C)ccc2c1[N+](=O)[O-]
2. CC(=O)Nc1ccc(NC(=O)c2ccc([As](O)O)cc2)cc1
3. COc1ccc(/C(C)=C(\c2ccc(OCCN3CCOCC3)cc2)c2ccc(OC(=O)Cc3ccccc3)cc2)cc1

Ans.
92.9
85
98.5

Could I get growth for every one of these entries?
1. Cc1cc(N(CCCl)CCCl)ccc1/C=N\NC(=O)c1ccncc1
2. Nc1ccc(-c2nc3cc(F)ccc3[se]2)cc1F

Ans.
88.9
52.8

---

Record form. Attribute: growth. Fill in for each entry.
Tested on: CAKI-1 renal
Assay: NCI-60 one-dose screen, 48 h (100 = growth as untreated, 0 = no growth, -100 = all killed)
Details: 10 µM unless noted
The panel holds about 83,000 compounds, 20% with a hit somewhere; the sample as a whole holds those more often. Calls of active or inactive are those of the source. The calls were made as follows: active = growth percent below 10; inactive = the rest.

Examples with answers:
{"molecule": "CCC(CC)CC1(C)CC2(C)CCOC2OO1 (centres undefined)", "tested.target": "CAKI-1 renal", "growth": "95.7% (inactive)"}
{"molecule": "CC(=O)OC1CCC2C3CCC4=C/C(=N/OC(=O)c5ccc(N(CCCl)CCCl)cc5)CCC4(C)C3CC(C)C12 (centres undefined)", "tested.target": "CAKI-1 renal", "growth": "73.9% (inactive)"}
{"molecule": "COc1ccc(-n2c(C)nc3cc(OC)c(OC)cc3c2=O)cc1OC", "tested.target": "CAKI-1 renal", "growth": "97.3% (inactive)"}
{"molecule": "O=[N+]([O-])c1ccc([Se]C2CCCCC2Cl)c([N+](=O)[O-])c1 (centres undefined)", "tested.target": "CAKI-1 renal", "growth": "76.7% (inactive)"}

Could I get growth for every one of these entries?
1. CCCCCCC(=O)NC1=C(N2CC2)C(=O)C(NC(=O)CCCCCC)=C(N2CC2)C1=O
2. CC(=O)Oc1ccccc1C(=O)NCCC[Se]C#N
3. CCN1C(=O)C(=C/C=C/c2ccccc2)C(=O)N(CC)C1=O
4. C[C@]12C[C@@H](CO)[C@H](O)C[C@@H]1CC[C@@H]1[C@@H]2CC[C@]2(C)[C@@H](O)CC[C@@H]12
5. C[C@]12CC[C@H]3[C@@H](CC[C@]4(O)C[C@@H](O[C@@H]5O[C@H](CO)[C@@H](O[C@@H]6OC[C@@H](O)[C@H](O)[C@H]6O)[C@H](O)[C@H]5O)CC[C@]34C=O)[C@@]1(O)CC[C@@H]2C1=CC(=O)OC1
6. O=NNc1ccccn1
7. COc1ccc(/C=C\c2cc(OC)c(OC)c(OC)c2)c(NS(=O)(=O)c2ccc(F)cc2)c1O

Ans.
["45.6% (inactive)", "0.654% (active)", "87.8% (inactive)", "94.1% (inactive)", "-5.08% (active)", "43.6% (inactive)", "20.8% (inactive)"]

Could I get growth for every one of these entries?
1. COc1ccc(O)c(CNC(=O)CN2CCCC2=O)c1
2. CN1C(=O)N[C@H]2[C@@H]3NC(=O)c4ccc(Br)n4[C@@H]3C[C@]21O
3. CC[C@H](C)[C@H](NC(=O)[C@H]1CCCCN1C)C(=O)N(C)[C@H](C[C@@H](OC(C)=O)c1nc(C(=O)N[C@@H](Cc2ccccc2)C[C@H](C)C(=O)OC)cs1)C(C)C
4. COC(=O)[C@@H](C)C[C@H](Cc1ccccc1)NC(=O)c1csc([C@@H](C[C@H](C(C)C)N(C)C(=O)[C@@H](NC(=O)[C@H]2CCCCN2C)c2ccc(F)cc2)OC(C)=O)n1
5. COc1ccc(/C=C\c2cc(OC)c(OC)c(OC)c2)cc1OCC(=O)Nc1nc2ccc(F)cc2s1
6. COc1cc2ncnc(Nc3ccc(F)c(Cl)c3)c2cc1OCC(=O)N1CCN(C)CC1
7. CCCCCCCCOC(=O)CCN1CC1
8. O=C(c1cccc(O)c1O)c1cn(Cc2ccc(F)cc2)c2cccc(O)c12

Ans.
97.4% (inactive)
6.74% (active)
32.2% (inactive)
14% (inactive)
16.9% (inactive)
44.1% (inactive)
98.4% (inactive)
21.5% (inactive)

---

Record form. Attribute: growth. Fill in for each entry.
System: NCI-H226 lung
Assay: NCI-60 one-dose screen, 48 h (100 = growth as untreated, 0 = no growth, -100 = all killed)
Conditions: 10 µM unless noted
Compounds without any hit were thinned out: in the full panel of roughly 83,000, 20% have a hit. Activity calls are given as the source filed them. Rule for the calls: active = growth percent below 10; inactive = the rest.

Examples with answers:
{"compound": "O=C(CN1CCN(C(=O)c2ccco2)CC1)Nc1ccc(Cl)cc1C(=O)c1ccccc1Cl", "tested.target": "NCI-H226 lung", "growth": "95.1% (inactive)"}
{"compound": "CC(=O)O[C@H]1C(=O)[C@@]2(C)[C@H]([C@H](OC(=O)c3ccccc3)[C@]3(O)C[C@H](OC(=O)[C@H](OC(=O)OC[C@@H]4COC(C)(C)O4)[C@@H](NC(=O)c4ccccc4)c4ccccc4)C(C)=C1C3(C)C)[C@]1(OC(C)=O)CO[C@@H]1C[C@@H]2O", "tested.target": "NCI-H226 lung", "growth": "60.4% (inactive)"}
{"compound": "COc1ccc(C(=O)c2cc(OC)c(OC)c(OC)c2)cc1OC(C)=O", "tested.target": "NCI-H226 lung", "growth": "102% (inactive)"}
{"compound": "O[C@H](CN1CC1)[C@@H](O)CN1CC1", "tested.target": "NCI-H226 lung", "growth": "79.7% (inactive)"}
{"compound": "O=C(NCCN1CC1)C(=O)NCCN1CC1", "tested.target": "NCI-H226 lung", "growth": "87.4% (inactive)"}

Could I get growth for every one of these entries?
1. CCC[CH2][Sn]([CH2]CCC)([CH2]CCC)[O]c1ccc(Cl)cc1Cl
2. COc1cc([C@@H]2c3cc4c(cc3[C@H](OC(C)=O)[C@H]3COC(=O)[C@H]23)OCO4)cc(OC)c1OC
3. CC(C)=CCc1c(O)c(C(=O)CC(C)C)c(O)c2c(-c3ccccc3)cc(=O)oc12
4. CC(=O)Nc1ccc(NC(=O)c2ccc([As](O)O)cc2)cc1
5. Clc1cccc(N2COOC3(OOC2)C2CC4CC(C2)CC3C4)c1
6. Clc1cccc(NCOOC2(OOCNc3cccc(Cl)c3)CCCCCC2)c1
7. O=C1CNC(c2ccccc2)c2cc(Cl)ccc2N1 (stereo not given)
8. Fc1cccc(NCOOC2(OOCNc3cccc(F)c3)CCCCC2)c1

Ans.
1: -86.5% (active); 2: 76.4% (inactive); 3: 47.4% (inactive); 4: 116% (inactive); 5: 96.2% (inactive); 6: 102% (inactive); 7: 89.6% (inactive); 8: 112% (inactive)

Could I get growth for every one of these entries?
1. COC(=O)[C@@]1(C)CC[C@]2(C)CC[C@]3(C)C4=CC(=O)c5c(cc(O)c(O)c5C)[C@]4(C)CC[C@@]3(C)[C@@H]2C1
2. ClCCN(CCCl)c1nc(Cl)c(C2CC(c3ccccc3)=NN2c2cc(Cl)cc(Cl)c2)s1 (stereo not given)
3. CN(C)C(=O)Oc1ccc(Br)cc1
4. CC1=C(CCCOC(=O)CN)C2=C(C)C3(CC3)[C@@](C)(O)C(=O)C2=C1
5. CCCCC1(CCC)C(=O)NC(=S)NC1=O

Ans.
["51.1% (inactive)", "99.6% (inactive)", "101% (inactive)", "90.5% (inactive)", "106% (inactive)"]

Could I get growth for every one of these entries?
1. O=C(N/N=C\c1ccc(N(CCCl)CCCl)cc1)c1cccc([N+](=O)[O-])c1
2. Cc1ccc(C(Cc2ccccc2)NCCO)cc1 (stereo not given)

Ans.
46.6% (inactive)
97.2% (inactive)
